- Tested on: RARg:RXRa (NR concentration 270 nM, RXRa partner concentration 90 nM)
- Method: PBM binding z-score (relative to random genomic background probes); higher = stronger binding; sequences stand for … in GC…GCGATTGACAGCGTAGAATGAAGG
The entries below are paired with their reported PBM binding z-score.
Experimental Endpoint: PBM binding z-score

Primary Sequence	Value Reported
CCTAGCAGGCCAATCTGGGTTACTCAAGGCTTGA	-0.247
TCTTGTAGATCAAAGGATAAGAAAGCCGAAGCCT	-0.0685
TCTTGTAGATCAAGCAGGTTAAGATAGCCTGAGT	0.091
TAGCCTAGGTCATTCAGGGGCCAGTCTAGAAAGC	5.97
TCTTGTAGATCAAAGGTAAAGAAAGCCGAAGCCT	0.243
TCTCGGTGGACACGAAAGGTCAGAGCTCGACATC	4.38
CCACACAGGTGAAAGGTAACTCAGTCTGGTACGC	1.5
AGAACGATGGCACGCTGAGTTGATAGCAGAGTAG	-0.162
TGAATGAGGTTAAAGATCGGGGAACGTGGCGTCG	2.41
ATACCAAGGTGAGCGTGAGGTCGTTGATACTAAC	2.92
CCTACTGGGCCATCAGGTCATTGCTATCAACGTT	2.04
ATCGAAAGGTCGAACGTGAGTATACCCACCCGAA	3.98

====

- Test system: LXRb:RXRa (NR concentration 270 nM, RXRa partner concentration 90 nM)
- Method: PBM binding z-score (relative to random genomic background probes); higher = stronger binding; sequences stand for … in GC…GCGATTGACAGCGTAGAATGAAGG
The entries below are paired with their reported PBM binding z-score.
Experimental Endpoint: PBM binding z-score

Primary Sequence	Value Reported
CCTGCTAGGTCCATGGTCAGCTAAAGCAGCTCGC	-0.958
ATCTCTAGGTAAAGATAGTTCACTGAATGCAAAT	1.37
ATACCAAGTTGATCGTGAGGTCGTTGATACTAAC	1.31
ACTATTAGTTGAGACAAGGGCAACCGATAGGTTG	-0.136
CAAACTAGGTCACGATAGGTCAAAGTCGAATGAC	6.9
ATAGAAAGGTCGAGGTGAGTATAGAGAAAGGGAA	2.75
TCATATAGGTAAATGGTAGGTGAAAGTCCGATCT	1.26
CAGCCTAGATCAGGGCCAGTATAGGAGGAACGTT	-1.08
ATATGTAGGTTGTCGGGTCATTCAGTTTGCGCAT	2.65
AATACAGGGTCACTAGGCCGGAGTAGGTACGAAT	3.77
CCGACTGGGGGAAAGGTTACCATACTCAGTACGA	3.4
TGTCAAACTTCAAAGGTAACGTAAGTATCCACAC	0.695

====

- Tested on: VDR:RXRa (NR concentration 270 nM, RXRa partner concentration 90 nM)
- Method: PBM binding z-score (relative to random genomic background probes); higher = stronger binding; sequences stand for … in GC…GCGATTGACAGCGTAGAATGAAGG

Primary Sequence	PBM binding z-score
GCATATAGGTAATACAAGGTGAGAGTCCGATTGT	0.351
AGAATGAGGTTATACGTAGATCAGTGAAGAAAGT	1.31
TCTATTAGTTGATAAGGGCAACCGAAACAGCGGA	0.713
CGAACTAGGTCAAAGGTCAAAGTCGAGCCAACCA	6.78
CGTCTAAGGTCAGAGAGGTCAGTGAATGCCGAGT	7.63
TGAATGACGTTATAAGATCAGGGAACGTTGCAAA	0.104
